subject.of.test: SOS1-mediated nucleotide exchange on RAS (Homo sapiens, UniProt Q07889)
Sequence (Q07889 564-1049 limits assumed): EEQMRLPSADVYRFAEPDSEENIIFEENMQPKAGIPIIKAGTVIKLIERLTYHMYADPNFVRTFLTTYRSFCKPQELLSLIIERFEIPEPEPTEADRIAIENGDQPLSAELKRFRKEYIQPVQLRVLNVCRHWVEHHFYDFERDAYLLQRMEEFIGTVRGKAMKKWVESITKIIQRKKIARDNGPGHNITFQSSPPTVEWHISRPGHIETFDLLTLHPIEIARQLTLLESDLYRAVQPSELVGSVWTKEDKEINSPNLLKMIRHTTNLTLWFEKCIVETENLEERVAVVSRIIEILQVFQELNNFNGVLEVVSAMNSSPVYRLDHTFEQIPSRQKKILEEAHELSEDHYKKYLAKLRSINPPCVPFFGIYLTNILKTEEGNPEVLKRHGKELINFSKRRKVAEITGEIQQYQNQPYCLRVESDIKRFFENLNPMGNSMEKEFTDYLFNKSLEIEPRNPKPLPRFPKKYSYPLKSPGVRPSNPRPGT
Sequence (P01112 1-166 partner limits assumed): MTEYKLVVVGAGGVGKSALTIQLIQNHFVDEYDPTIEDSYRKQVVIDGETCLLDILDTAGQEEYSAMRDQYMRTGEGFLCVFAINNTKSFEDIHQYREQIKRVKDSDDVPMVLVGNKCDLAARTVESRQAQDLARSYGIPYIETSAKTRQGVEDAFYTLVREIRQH
experiment.notes: SOS1-mediated nucleotide exchange assay
pEC50: −log10 of the molar value.
readout.name: pEC50

input: Fill blank: measured pEC50 of the compound Cc1cc(Cn2c(N3CCNCC3)nc3ccc(Cl)cc32)cc(C)c1F [Compound 29] is ____.
output: > 6.00

src = paper PMC8314423
